# protocolNotes: Compound was tested for […] after intraperitoneal injection into mice by using neurotoxicity screen test after 2 hr
# Assay type: organism-based
# conditionContext: mouse, in vivo, ip
quantityMeasured: TD50 at 2 h (mg/kg)
Please state the figure in mg/kg; there is no need to write the unit.

| structureSmiles | TD50 at 2 h / mg/kg |
| --- | --- |
| NC(=O)N/N=C/c1ccc(Oc2c(F)cccc2F)cc1 | 125 |
| NC(=O)N/N=C/c1ccc(Oc2ccc(F)c(F)c2)cc1 | 94.8 |

Param item = `NC(=O)N/N=C\c1ccc(Oc2cccc(Cl)c2)cc1` ; retrieve measured TD50 at 2 h.
64.5

###

# protocolNotes: Compound was tested for toxicity after oral administration in rat by using neurotoxicity screen test after 0.25-24 hr
# Assay type: organism-based
# conditionContext: in vivo
quantityMeasured: TD50

These recorded examples may help you get a feel for the data.
| compound | TD50 |
| --- | --- |
| C/C(=N/NC(N)=O)c1ccc(Oc2ccc(Br)cc2)cc1 | > 500 mg/kg |
| CCCc1ccc(Oc2ccc(/C=N/NC(N)=O)cc2)cc1 | > 500 mg/kg |
| Cc1cccc(Oc2ccc(/C=N/NC(N)=O)cc2)c1 | > 500 mg/kg |

Param item = `CC(C)(C)c1ccc(Oc2ccc(/C=N\NC(N)=O)cc2)cc1` ; retrieve measured TD50.
> 500 mg/kg

Try the compound `Cc1ccccc1Oc1ccc(/C=N/NC(N)=O)cc1`
> 500 mg/kg

Try the compound O=C1NC(=O)C(c2ccccc2)(c2ccccc2)N1 [PHENYTOIN]
> 500 mg/kg

Try the compound `Cc1ccc(Sc2ccc(/C=N/NC(N)=O)cc2)cc1`
> 500 mg/kg

###

# protocolNotes: Compound was tested for toxicity after intraperitoneal injection into mice by using neurotoxicity screen test after 0.25 hr
# conditionContext: mouse, in vivo, ip
quantityMeasured: TD50 at 0.25 h (mg/kg)
Please state the figure in mg/kg; there is no need to write the unit.

Param item = `CCCC(CCC)C(=O)O` ; retrieve measured TD50 at 0.25 h.
483

###

# Tested on: Rattus norvegicus
# protocolNotes: Compound was tested for anticonvulsant activity after Oral Administration into Rats by using MES screen test after 2h,dose 30 mg/kg; number of rats out of four which were protected
# Assay type: functional
quantityMeasured: Activity
Kindly provide the number alone.

Param item = `C/C(=N/NC(N)=O)c1ccc(Sc2ccccc2)cc1` ; retrieve measured Activity.
4

Try the compound `C/C(=N/NC(N)=O)c1ccc(Oc2ccccc2)cc1`
4

###

# System: Mus musculus
# protocolNotes: Toxicity after intraperitoneal injection into mice by using toxicity screen test after 0.5 hr
# Format: organism-based
# conditionContext: in vivo, ip
Listed next: entries and their corresponding Dose.
Please state the figure in mg/kg; there is no need to write the unit.

These recorded examples may help you get a feel for the data.
| structureSmiles | assayTarget | unitInfo | reportedResult |
| --- | --- | --- | --- |
| CCCCCCCOc1ccc(Oc2ccc(/C=N/NC(N)=O)cc2)cc1 | Mus musculus | mg/kg | 300 |
| Cc1ccccc1Oc1ccc(/C=N/NC(N)=O)cc1 | Mus musculus | mg/kg | 300 |
| CCCCOc1ccc(Oc2ccc(/C=N/NC(N)=O)cc2)cc1 | Mus musculus | mg/kg | 300 |
| NC(=O)N/N=C/c1ccc(Oc2ccc(F)cc2Cl)cc1 | Mus musculus | mg/kg | 100 |
| Cc1cccc(C)c1Oc1ccc(/C=N/NC(N)=O)cc1 | Mus musculus | mg/kg | 300 |
| Cc1ccc(Oc2ccc(/C=N/NC(N)=O)cc2)c(C)c1 | Mus musculus | mg/kg | 300 |
| C/C(=N/NC(N)=O)c1ccccc1Oc1ccc(Br)cc1 | Mus musculus | mg/kg | 300 |
| NC(=O)N/N=C/c1ccc(Oc2ccccc2Cl)cc1 | Mus musculus | mg/kg | 300 |
| Cc1cc(Oc2ccc(/C=N/NC(N)=O)cc2)ccc1Cl | Mus musculus | mg/kg | 300 |
| C/C(=N/NC(N)=O)c1ccc(Oc2ccc(Br)cc2)cc1 | Mus musculus | mg/kg | 300 |

Param item = `CC/C(=N/NC(N)=O)c1ccc(Sc2ccc(F)cc2)cc1` ; retrieve measured Dose.
100

Try the compound `C/C(=N/NC(N)=O)c1ccccc1Oc1ccc(Cl)cc1`
300

Try the compound `N#Cc1ccc(Oc2ccc(/C=N\NC(N)=O)cc2)cc1`
300

Try the compound `NC(=O)N/N=C/c1ccc(Oc2cc(F)ccc2F)cc1`
300

Try the compound `Cc1cc(Cl)ccc1Oc1ccc(/C=N/NC(N)=O)cc1`
300

Try the compound `CC(=O)N/N=C/c1ccc(Oc2ccc(F)cc2)cc1`
100
